src = patent US5198439A

quantity_measured: pIC50
For clarity, pIC50 is expressed as the negative log10 of concentration in mol/L.

Exercise: Field: pIC50 (UniProt:Q9WV26). Entry: COC(=O)c1c(OCc2ccc(-c3ccccc3-c3nnn[nH]3)cc2)cc(C)nc1C.Cl [Example 2, hydrochloride]
Sequence (Q9WV26 whole entry): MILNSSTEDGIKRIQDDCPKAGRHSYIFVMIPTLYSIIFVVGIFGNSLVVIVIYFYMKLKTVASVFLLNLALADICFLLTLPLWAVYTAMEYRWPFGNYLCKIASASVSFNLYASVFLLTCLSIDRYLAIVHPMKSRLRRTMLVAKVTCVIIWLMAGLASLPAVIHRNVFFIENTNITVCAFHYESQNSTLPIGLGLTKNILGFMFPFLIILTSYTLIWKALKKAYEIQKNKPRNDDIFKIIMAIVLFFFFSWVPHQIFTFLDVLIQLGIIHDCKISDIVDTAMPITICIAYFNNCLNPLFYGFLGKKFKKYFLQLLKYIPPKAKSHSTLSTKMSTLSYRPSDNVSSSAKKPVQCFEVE
Key: 7.30
